FYI, the data here is from the Kinase Knowledgebase extract (Sharma et al. 2016).

- tgt: EGFR (human) (UniProt P00533)
- Sequence (P00533 whole entry, looked up): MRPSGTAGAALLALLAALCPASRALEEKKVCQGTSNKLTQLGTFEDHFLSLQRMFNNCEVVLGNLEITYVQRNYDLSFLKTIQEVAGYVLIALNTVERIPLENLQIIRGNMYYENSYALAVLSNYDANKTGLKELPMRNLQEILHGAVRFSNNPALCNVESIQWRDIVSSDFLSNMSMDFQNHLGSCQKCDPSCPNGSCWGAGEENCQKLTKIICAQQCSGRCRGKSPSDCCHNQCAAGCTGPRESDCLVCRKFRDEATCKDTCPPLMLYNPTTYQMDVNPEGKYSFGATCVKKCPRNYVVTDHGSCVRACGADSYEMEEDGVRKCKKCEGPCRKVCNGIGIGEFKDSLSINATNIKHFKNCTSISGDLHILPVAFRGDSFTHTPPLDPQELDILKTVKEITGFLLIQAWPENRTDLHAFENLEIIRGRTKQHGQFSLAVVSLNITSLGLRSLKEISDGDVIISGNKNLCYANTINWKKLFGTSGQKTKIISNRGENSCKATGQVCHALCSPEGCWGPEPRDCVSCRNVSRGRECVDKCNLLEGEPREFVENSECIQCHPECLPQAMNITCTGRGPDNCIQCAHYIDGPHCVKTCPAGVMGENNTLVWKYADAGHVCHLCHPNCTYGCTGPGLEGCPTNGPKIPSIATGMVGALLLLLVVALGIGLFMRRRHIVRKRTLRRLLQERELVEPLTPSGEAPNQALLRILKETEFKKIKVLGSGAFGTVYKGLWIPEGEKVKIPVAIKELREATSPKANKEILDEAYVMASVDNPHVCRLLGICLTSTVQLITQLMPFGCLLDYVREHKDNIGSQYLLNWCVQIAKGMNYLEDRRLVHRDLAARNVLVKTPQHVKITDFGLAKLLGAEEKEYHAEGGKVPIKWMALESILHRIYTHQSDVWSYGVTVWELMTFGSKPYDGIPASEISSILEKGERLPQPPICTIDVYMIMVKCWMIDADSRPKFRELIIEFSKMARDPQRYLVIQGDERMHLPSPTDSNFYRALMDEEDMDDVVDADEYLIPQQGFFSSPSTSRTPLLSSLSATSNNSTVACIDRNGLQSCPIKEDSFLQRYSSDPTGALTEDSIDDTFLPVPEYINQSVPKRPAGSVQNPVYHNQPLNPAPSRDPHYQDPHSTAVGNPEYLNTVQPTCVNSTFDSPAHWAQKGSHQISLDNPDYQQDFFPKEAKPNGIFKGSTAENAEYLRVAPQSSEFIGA
- testContext: a431
pIC50: −log10 of the molar value.
Mark 0 (no) for pIC50 values under 7, and 1 (yes) for everything at or above.

Reference set, count: 4
>  <compound>
CC(=O)N[C@@H]1CCN(CC(O)Cn2ccc(-c3ccc4ncnc(Nc5ccc6c(cnn6Cc6cccc(F)c6)c5)c4c3)c2)C1 (stereo partly drawn)

>  <groupLabel>
0 (no)

$$$$
>  <compound>
CS(=O)(=O)CCNCc1cc(-c2ccc3ncnc(Nc4ccc(OCc5cccc(F)c5)c(Cl)c4)c3c2)c[nH]1

>  <groupLabel>
0 (no)

$$$$
>  <compound>
Fc1cccc(COc2ccc(Nc3ncnc4ccc(-c5ccn(CCN6CCCC6)c5)cc34)cc2Cl)c1

>  <groupLabel>
1 (yes)

$$$$
>  <compound>
Clc1cc(Nc2ncnc3ccc(-n4cccc4)cc23)ccc1OCc1ccccn1

>  <groupLabel>
1 (yes)

$$$$

Now examine the next entry.
Query :: Hi team, for OC(CN1CCCCC1)Cn1ccc(-c2ccc3ncnc(Nc4ccc(OCc5cccc(F)c5)c(Cl)c4)c3c2)c1 (stereo not drawn) , is the recorded pIC50 at or above 7?
Result :: 0 (no)

----------
- tgt: EGFR (human)
- testContext: a431
readoutType: IC50 (nM)
Numbers only, in nM.

Examples with their reported IC50 follow.
>  <compound>
CS(=O)(=O)CCNCc1ccc(-c2ccc3ncnc(Nc4ccc(OCc5cccc(F)c5)c(Cl)c4)c3c2)[nH]1

>  <measValue>
120

$$$$
>  <compound>
OCCN1CCOC(Cn2ccc(-c3ccc4ncnc(Nc5ccc6c(cnn6Cc6cccc(F)c6)c5)c4c3)c2)C1 (centres undefined)

>  <measValue>
477

$$$$
>  <compound>
O=C(c1cn(-c2ccc3ncnc(Nc4ccc(OCc5cccc(F)c5)c(Cl)c4)c3c2)cc1CCO)N1CCCCC1

>  <measValue>
50

$$$$
>  <compound>
CCN(CC)CCN1CCOC(Cn2ccc(-c3ccc4ncnc(Nc5ccc6c(cnn6Cc6cccc(F)c6)c5)c4c3)c2)C1 (centres undefined)

>  <measValue>
501

$$$$
>  <compound>
OC(CN1CCOCC1)Cn1ccc(-c2ccc3ncnc(Nc4ccc5c(cnn5Cc5cccc(F)c5)c4)c3c2)c1 (centres undefined)

>  <measValue>
170

$$$$

Batch request: IC50 for each of the following compounds.
1. O[C@@H](CN1CCC(N2CCCCC2)CC1)Cn1ccc(-c2ccc3ncnc(Nc4ccc(OCc5cccc(F)c5)c(Cl)c4)c3c2)c1
2. CCOC(=O)C1CCN(C(=O)Cn2ccc(-c3ccc4ncnc(Nc5ccc(OCc6cccc(F)c6)c(Cl)c5)c4c3)c2)CC1
3. Fc1cccc(COc2ccc(Nc3ncnc4ccc(-c5cc[nH]c5)cc34)cc2Cl)c1
4. Fc1ccc(Nc2ncnc3ccc(-n4cccc4)cc23)cc1Cl
5. O=C(Cn1ccc(-c2ccc3ncnc(Nc4ccc(OCc5cccc(F)c5)c(Cl)c4)c3c2)c1)N1CCN(CCO)CC1
6. CC(Nc1ncnc2ccc(-n3cc(CCO)c(C(=O)N4CCOCC4)c3)cc12)c1ccccc1 (centres undefined)
7. Fc1cccc(COc2ccc(Nc3ncnc4ccc(-n5cc6c(c5)C(=NOCCN5CCOCC5)CC6)cc34)cc2Cl)c1
8. CN1CCN(Cc2cn(-c3ccc4ncnc(Nc5ccc(OCc6ccccn6)c(Cl)c5)c4c3)cc2CCO)CC1

Result ::
1: 415; 2: 3320; 3: 50; 4: 70; 5: 51; 6: 140; 7: 20; 8: 210

For the 5 compounds below, give their IC50 values.
1. CC(Nc1ncnc2ccc(-n3cc(CCO)c(CN4CCCC4)c3)cc12)c1ccccc1 (centres undefined)
2. CS(=O)(=O)N1CCOC(Cn2ccc(-c3ccc4ncnc(Nc5ccc6c(cnn6Cc6cccc(F)c6)c5)c4c3)c2)C1 (centres undefined)
3. Fc1cccc(Cn2ncc3cc(Nc4ncnc5ccc(-c6ccn(CCCN7CCOCC7)c6)cc45)ccc32)c1
4. O=C(NCCN1CCOCC1)c1cn(-c2ccc3ncnc(Nc4ccc(OCc5cccc(F)c5)c(Cl)c4)c3c2)cc1CCO
5. CC(=O)NC1CCN(C(=O)Cn2ccc(-c3ccc4ncnc(Nc5ccc(OCc6cccc(F)c6)c(Cl)c5)c4c3)c2)CC1

Result ::
130
243
426
2360
952

// for each compound below, give its IC50
1. Fc1cccc(COc2ccc(Nc3ncnc4ccc(-c5ccn(Cc6ccncc6)c5)cc34)cc2Cl)c1
2. O=S1(=O)CCN(CC(O)Cn2ccc(-c3ccc4ncnc(Nc5ccc(OCc6cccc(F)c6)c(Cl)c5)c4c3)c2)CC1 (centres undefined)
3. O=S1(=O)CCC(O)(CNCc2ccn(-c3ccc4ncnc(Nc5ccc(OCc6cccc(F)c6)c(Cl)c5)c4c3)c2)CC1
4. Fc1cccc(COc2ccc(Nc3ncnc4ccc(-c5ccc[nH]5)cc34)cc2Cl)c1
5. OC(CN1CCN(CC2CC2)CC1)Cn1ccc(-c2ccc3ncnc(Nc4ccc(OCc5cccc(F)c5)c(Cl)c4)c3c2)c1 (centres undefined)
6. CS(=O)(=O)CCn1ccc(-c2ccc3ncnc(Nc4ccc(OCc5cccc(F)c5)c(Cl)c4)c3c2)c1

Result ::
49
1460
30
1080
409
647
